Overview of recorded protein stability index for various variants
B1: ZNF449 (parent)
chain: QLTGHQRIHSGEEPHKCPECGKRF

- Variants of: B1
- METHOD SUMMARY: protein stability index of a GFP-peptide fusion (GPS, HEK-293T) (PSI 1-6); higher = more stable;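 further: lentivirally expressed fusions sorted by FACS into six bins by GFP to DsRed ratio, PSI derived from sequencing read proportions per bin multiplied by bin number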
- EXPERIMENTAL SETUP: c terminus: a fixed tail appended

# CHANGES, protein stability index
data = [
    ("G4Q", 4.7),
    ("T3M", 4.15),
    ("I8Y", 4.53),
    ("K16V", 4.58),
    ("G4D", 4.09),
    ("E13N", 3.42),
    ("P18I", 3.88),
    ("C17P", 4.71),
    ("H5D", 4.38),
    ("K16W", 4.14),
    ("I8A", 4.54),
    ("G21E", 4.87),
    ("G11T", 3.96),
]
